experiment: In vitro microsomal stability study, human liver microsomes; type: in vitro ADME; details: pH 7.4, read-out: h-liver microsomal stability t1/2
Value kind: half-life at 4.6 μM

Task: Dear colleague, I am looking for the recorded half-life at 4.6 μM of the following compound: CCCCCNC(=O)n1cc(-c2ccc(F)cc2C2CCN(C)CC2)oc1=O [Compound 32b]
Result: > 1 h

----------
biological target: hAC (Homo sapiens); experiment: Fluorogenic hAC assay (hAC-enriched HEK293 lysate); type: biochemical; parameters: expressed in transfected cells; lysosome-enriched lysate; details: fluorogenic substrate Rbm14-12 5 μM, pH 4.5; mean of at least three experiments; read-out: hAC IC50 (μM)±SD
Sequence (Q13510 22-395): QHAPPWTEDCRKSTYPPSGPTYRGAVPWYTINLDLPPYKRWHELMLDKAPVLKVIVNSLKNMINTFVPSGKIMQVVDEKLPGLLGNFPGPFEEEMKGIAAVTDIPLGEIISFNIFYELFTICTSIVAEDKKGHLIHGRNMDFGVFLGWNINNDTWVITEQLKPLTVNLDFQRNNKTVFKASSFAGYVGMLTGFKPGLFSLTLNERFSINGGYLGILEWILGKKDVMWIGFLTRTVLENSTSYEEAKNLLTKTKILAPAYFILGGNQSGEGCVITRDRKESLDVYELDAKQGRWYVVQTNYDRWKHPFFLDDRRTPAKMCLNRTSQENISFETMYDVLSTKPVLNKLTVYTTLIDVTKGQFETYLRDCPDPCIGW
Value kind: IC50 (µM)
Provide the reading as a plain figure in µM.

Task: Dear colleague, I am looking for the recorded IC50 of the following compound: O=C(NCCCCc1ccccc1)n1c(-c2ccccc2)coc1=O [Compound 8a]
Result: 0.007
